All values here come from paper PMC11944514.

- Tested on: DENV2-Nanoluc
- Experiment summary: microbe, parasite or virus in culture
- Format: cell-based
- Condition parameters: Dengue virus, DENV2, Vero C1008, read-out: DENV2 EC50, μM
Listing of entries alongside the reported EC50.

>  <Smiles record>
COc1c(C)c2c(c(O)c1CC=C(C)CCC(=O)O)C(=O)OC2

>  <Target of assay>
DENV2-Nanoluc

>  <EC50 [µM]>
0.12

$$$$
>  <Smiles record>
O[C@H]1[C@H]2c3cc4c(cc3CN3CCC(=C[C@@H]1O)[C@H]23)OCO4

>  <Target of assay>
DENV2-Nanoluc

>  <EC50 [µM]>
0.09

$$$$
>  <Smiles record>
O=[N+]([O-])c1c(Nc2ccccc2O)cc(Cl)c2nonc12

>  <Target of assay>
DENV2-Nanoluc

>  <EC50 [µM]>
2.91

$$$$

----------
- System: ZIKV-Nanoluc
- Experiment summary: microbe, parasite or virus in culture
- Type: cell-based
- Condition parameters: Zika virus, Vero C1008, read-out: ZIKV EC50, μM
Response field label takes condition met when EC50 is strictly below 0.5 µM and condition not met in all other cases.

>  <Compound>
CN1C(=O)C2(CC(=O)Nc3c2cnn3Cc2ccc(Cl)cc2)c2cc(Cl)ccc21 (centres unmarked) [Compound C6]

>  <Target of assay>
ZIKV-Nanoluc

>  <Assigned class>
condition not met

$$$$
>  <Compound>
CC(C)(C)Oc1cccc2nc(N)nc(N)c12 [Compound C2, 5-(tert-butoxy)quinazoline-2,4-diamine]

>  <Target of assay>
ZIKV-Nanoluc

>  <Assigned class>
condition met

$$$$
>  <Compound>
COc1c(C)c2c(c(O)c1CC=C(C)CCC(=O)O)C(=O)OC2 [Compound C3]

>  <Target of assay>
ZIKV-Nanoluc

>  <Assigned class>
condition not met

$$$$
>  <Compound>
O=[N+]([O-])c1c(Nc2ccccc2O)cc(Cl)c2nonc12 [Compound C5]

>  <Target of assay>
ZIKV-Nanoluc

>  <Assigned class>
condition not met

$$$$
>  <Compound>
O[C@H]1[C@H]2c3cc4c(cc3CN3CCC(=C[C@@H]1O)[C@H]23)OCO4 [Compound C1]

>  <Target of assay>
ZIKV-Nanoluc

>  <Assigned class>
condition met

$$$$

----------
- Experiment summary: xCELLigence real-time cytotoxicity assay (RTCA), CC50
- Assay type: cell-based
- Condition parameters: African green monkey, Vero E6 cells, 24 h of exposure
Measured attribute: CC50 at 24 h

>  <Molecule>
O[C@H]1[C@H]2c3cc4c(cc3CN3CCC(=C[C@@H]1O)[C@H]23)OCO4

>  <Endpoint value>
1.3 µM

$$$$
>  <Molecule>
O=[N+]([O-])c1c(Nc2ccccc2O)cc(Cl)c2nonc12

>  <Endpoint value>
12.8 µM

$$$$
>  <Molecule>
COc1c(C)c2c(c(O)c1CC=C(C)CCC(=O)O)C(=O)OC2

>  <Endpoint value>
> 5 µM

$$$$
>  <Molecule>
CN1C(=O)C2(CC(=O)Nc3c2cnn3Cc2ccc(Cl)cc2)c2cc(Cl)ccc21 (centres unmarked)

>  <Endpoint value>
> 50 µM

$$$$
>  <Molecule>
Nc1ncnc2c1ncn2C1OC(CO)C(O)C1O (centres unmarked)

>  <Endpoint value>
> 50 µM

$$$$
>  <Molecule>
CC(C)(C)Oc1cccc2nc(N)nc(N)c12

>  <Endpoint value>
0.31 µM

$$$$
>  <Molecule>
Nc1nc(N)c2c(Oc3ccc(F)cc3)cccc2n1

>  <Endpoint value>
> 0.2 µM

$$$$
>  <Molecule>
O=c1ccc2[n+]([O-])c3ccc([O-])cc3oc-2c1.[Na+]

>  <Endpoint value>
> 50 µM

$$$$
